Provenance of the data: patent US20140275259A1

- Experiment summary: in vivo
- Condition description: rat, 213.5 mg/kg
Readout: AUC (µg·h/mL)
Report only the number, with the unit µg·h/mL understood.

[in] Give AUC for the following molecule: `O=C([O-])CN(CCN(CC(=O)[O-])CC(=O)[O-])CC(=O)[O-].[Ca+2].[Na+].[Na+]`
[out] 106

---

- Experiment summary: in vivo
- Condition description: rat
Readout: bioavailability at 8 hours (%)
Value expressed in %; do not type the unit.

[in] # return recorded bioavailability at 8 hours for entry O=C([O-])CN(CCN(CC(=O)[O-])CC(=O)[O-])CC(=O)[O-].[Ca+2].[Na+].[Na+] [CaNa2EDTA]
[out] 36.3

---

- Experiment summary: in vivo
- Condition description: rat, 213.5 mg/kg
Readout: AUC(0-inf)
// return the numeric value with its unit appended

[in] Return value of AUC(0-inf) for input `O=C([O-])CN(CCN(CC(=O)[O-])CC(=O)[O-])CC(=O)[O-].[Ca+2].[Na+].[Na+]` , no commentary.
[out] 307 µg·h/mL

---

- Experiment summary: in vivo
- Condition description: rat, iv, 1.37 mg/kg
Readout: Cmax
Number first, unit second: that is the form wanted.

[in] Please look at this compound and report its Cmax: `O=C([O-])CN(CCN(CC(=O)[O-])CC(=O)[O-])CC(=O)[O-].[Ca+2].[Na+].[Na+]`
[out] 2070 ng/mL

---

- Experiment summary: in vivo
- Condition description: rat, 213.5 mg/kg
Readout: Cmax (ng/mL)
Could you give me the number in ng/mL? Just the number is fine.

[in] Give the value of Cmax reported for the following: `O=C([O-])CN(CCN(CC(=O)[O-])CC(=O)[O-])CC(=O)[O-].[Ca+2].[Na+].[Na+]`
[out] 30600

---

- Experiment summary: in vivo
- Condition description: rat, iv, 1.37 mg/kg
Readout: AUC(0-inf)
Returns: string containing the numeric result and its unit.

[in] State its AUC(0-inf) for this compound: `O=C([O-])CN(CCN(CC(=O)[O-])CC(=O)[O-])CC(=O)[O-].[Ca+2].[Na+].[Na+]`
[out] 1910 ng·h/mL
